Reported pKd values for the following binders.
Target: T1, CEACAM1 (Sino Biological) (human, UniProt P13688 35-428, limits assumed)
T1 construct: may be the same as CEACAM1-HIS; also called hCEACAM1; biotinylated soluble CEACAM1
T1 sequence: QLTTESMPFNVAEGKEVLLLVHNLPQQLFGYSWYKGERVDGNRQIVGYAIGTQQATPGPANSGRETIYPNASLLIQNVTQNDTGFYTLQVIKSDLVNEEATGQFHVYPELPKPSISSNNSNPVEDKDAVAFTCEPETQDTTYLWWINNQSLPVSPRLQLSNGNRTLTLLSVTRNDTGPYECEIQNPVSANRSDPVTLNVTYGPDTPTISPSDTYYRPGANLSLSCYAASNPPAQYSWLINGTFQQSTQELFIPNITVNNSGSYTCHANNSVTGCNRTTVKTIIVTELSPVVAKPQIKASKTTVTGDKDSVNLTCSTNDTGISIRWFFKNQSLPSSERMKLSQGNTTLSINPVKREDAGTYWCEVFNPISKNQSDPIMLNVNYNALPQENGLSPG
Experiment: SPR single-cycle
Units for pKd: none; it is -log10 of a concentration expressed in mol/L.

binder	pKd
He17/L1 (antibody, IgG4, V domains shown, IgG4 S241P, kappa; also called 17 / 1; H17/L1) VH: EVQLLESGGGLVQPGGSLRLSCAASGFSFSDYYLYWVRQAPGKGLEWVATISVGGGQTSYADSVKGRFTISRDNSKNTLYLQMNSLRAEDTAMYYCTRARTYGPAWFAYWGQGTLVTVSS VL: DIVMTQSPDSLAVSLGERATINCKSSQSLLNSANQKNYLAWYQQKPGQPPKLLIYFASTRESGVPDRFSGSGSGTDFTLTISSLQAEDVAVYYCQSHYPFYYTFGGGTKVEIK	7.11

Continue with the binder presented below.
INPUT: Input He17/L19 (antibody, IgG4, V domains shown, IgG4 S241P, kappa) VH: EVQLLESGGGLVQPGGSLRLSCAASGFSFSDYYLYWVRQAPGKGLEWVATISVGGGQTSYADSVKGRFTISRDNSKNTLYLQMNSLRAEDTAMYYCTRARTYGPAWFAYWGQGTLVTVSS VL: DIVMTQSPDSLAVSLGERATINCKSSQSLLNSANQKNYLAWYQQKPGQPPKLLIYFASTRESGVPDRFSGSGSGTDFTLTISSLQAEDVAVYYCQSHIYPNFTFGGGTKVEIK , output reported pKd.
OUTPUT: 6.87
